measured on: σ-site of opioid receptor (Cavia porcellus)
Construct: Hartley guinea pigs were decapitated, and the brains were removed and homogenized; from tissue; host or cells: Hartley guinea pig brain homogenate (washed membranes)
test: In vitro binding, inhibition of [^3 H]PPP binding to guinea pig brain homogenate
Set-up: species or system Hartley guinea pig
condition notes: guinea pig brain homogenate, 0.6 nM [^3 H]PPP, 25° C., 1 hour; read-out: Ki [^3 H]PPP
experimental endpoint: pKi
# pKi is unitless: minus log10 of the molar concentration; print number only

{"compound": "C[C@@H]1[C@@H]2Cc3ccccc3[C@@]1(C)CCN2C(C1CC1)C1CC1 [(+)-BZ-1]", "pKi": 6.80}
{"compound": "CC(C1CO1)N1CC[C@]2(C)c3ccccc3C[C@H]1[C@H]2C (single isomer, unassigned; (+)) [(+)-BZ-5]", "pKi": 7.96}
{"compound": "CC(C1CC1)N1CC[C@]2(C)c3cc(F)ccc3C[C@H]1[C@H]2C (single isomer, unassigned; (+)) [(+)-BZ-14 (Isomer B)]", "pKi": 7.21}
{"compound": "CC(C)N1CC[C@]2(C)c3ccccc3C[C@H]1[C@H]2C [(+)-IIId-6]", "pKi": 6.25}
{"compound": "CC(C)N1CC[C@]2(C)c3cc(F)ccc3C[C@H]1[C@H]2C [(+)-BZ-13]", "pKi": 6.59}

Value lookup for pKi; key = C#CC(C)N1CC[C@]2(C)c3ccccc3C[C@H]1[C@H]2C (single isomer, unassigned; (+)) [(+)-BZ-6 (Isomer B)]
5.96

Value lookup for pKi; key = CC(C)N1CC[C@]2(C)c3cc(Cl)ccc3C[C@H]1[C@H]2C [(+)-BZ-26]
7.13

Value lookup for pKi; key = CC(C1CO1)N1CC[C@]2(C)c3ccccc3C[C@H]1[C@H]2C (single isomer, unassigned; (+)) [(+)-BZ-5 (Isomer A)]
7.40

Value lookup for pKi; key = C[C@@H]1[C@@H]2Cc3ccccc3[C@@]1(C)CCN2N(C)C [(+)-BZ-18]
6.09

Value lookup for pKi; key = C=CC(C1CC1)N1CC[C@]2(C)c3ccccc3C[C@H]1[C@H]2C (single isomer, unassigned; (+)) [(+)-BZ-4]
6.89

Value lookup for pKi; key = CC(C1CC1)N1CC[C@]2(C)c3cc(F)ccc3C[C@H]1[C@H]2C (single isomer, unassigned; (+)) [(+)-BZ-14 (Isomer A)]
7.85

Value lookup for pKi; key = CC(C1CCC1)N1CC[C@]2(C)c3ccccc3C[C@H]1[C@H]2C (single isomer, unassigned; (+)) [(+)-BZ-3 (Isomer B)]
8.09

Value lookup for pKi; key = CC(C1CO1)N1CC[C@]2(C)c3ccccc3C[C@H]1[C@H]2C (mixture of isomers) [(+)-BZ-5 (Mixture of Isomer B and C)]
7.38

----------
Reported values of pKi for individual entries
measured on: σ-site of opioid receptor (Cavia porcellus, UniProt Q60492)
Construct: Hartley guinea pigs were decapitated, and the brains were removed and homogenized; from tissue; host or cells: Hartley guinea pig brain homogenate (washed membranes)
Sequence (Q60492 whole entry): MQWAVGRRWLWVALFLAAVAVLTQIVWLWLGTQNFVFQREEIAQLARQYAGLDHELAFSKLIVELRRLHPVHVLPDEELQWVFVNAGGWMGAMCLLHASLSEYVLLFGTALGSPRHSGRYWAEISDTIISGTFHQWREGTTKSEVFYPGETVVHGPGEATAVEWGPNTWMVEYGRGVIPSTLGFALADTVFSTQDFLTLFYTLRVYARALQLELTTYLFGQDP
test: In vitro binding, inhibition of [^3 H]PPP binding to guinea pig brain homogenate
Parameters: species or system Hartley guinea pig
condition notes: guinea pig brain homogenate, 0.6 nM [^3 H]PPP, 25° C., 1 hour; read-out: Ki [^3 H]PPP
# pKi is unitless: minus log10 of the molar concentration; print number only

Study these solved cases before continuing.
{"molecule": "CC(C1CCC1)N1CC[C@]2(C)c3ccccc3C[C@H]1[C@H]2C (single isomer, unassigned; (+)) [(+)-BZ-3 (Isomer A)]", "measured on": "σ-site of opioid receptor (Cavia porcellus, UniProt Q60492)", "pKi": 8.92}
{"molecule": "C[C@@H]1[C@@H]2Cc3ccccc3[C@@]1(C)CCN2O [(+)-BZ-17A]", "measured on": "σ-site of opioid receptor (Cavia porcellus, UniProt Q60492)", "pKi": 4.59}
{"molecule": "CC(C1CC1)N1CC[C@]2(C)c3ccccc3C[C@H]1[C@H]2C (single isomer, unassigned; (+)) [(+)-IIId-7 (Isomer B)]", "measured on": "σ-site of opioid receptor (Cavia porcellus, UniProt Q60492)", "pKi": 7.15}
{"molecule": "CC(C1CC1)N1CC[C@]2(C)c3ccccc3C[C@H]1[C@H]2C (single isomer, unassigned; (+)) [(+)-IIId-7 (Isomer A)]", "measured on": "σ-site of opioid receptor (Cavia porcellus, UniProt Q60492)", "pKi": 7.70}
{"molecule": "C=CC(C)N1CC[C@]2(C)c3ccccc3C[C@H]1[C@H]2C (single isomer, unassigned; (+)) [(+)-BZ-2]", "measured on": "σ-site of opioid receptor (Cavia porcellus, UniProt Q60492)", "pKi": 7.00}

Value lookup for pKi; key = C[C@@H]1[C@@H]2Cc3ccccc3[C@@]1(C)CCN2C(C)(C)C [(+)-BZ-15A]
6.01

Value lookup for pKi; key = C#CC(C)N1CC[C@]2(C)c3ccccc3C[C@H]1[C@H]2C (single isomer, unassigned; (+)) [(+)-BZ-6 (Isomer A)]
4.72

----------
measured on: μ-site of opioid receptor (Rattus norvegicus)
Construct: Semipurified synaptic membranes were prepared according to the method of Toll et al. (1984); from tissue; host or cells: adult male Sprague-Dawley rat forebrain membranes
Sequence (P33535 whole entry): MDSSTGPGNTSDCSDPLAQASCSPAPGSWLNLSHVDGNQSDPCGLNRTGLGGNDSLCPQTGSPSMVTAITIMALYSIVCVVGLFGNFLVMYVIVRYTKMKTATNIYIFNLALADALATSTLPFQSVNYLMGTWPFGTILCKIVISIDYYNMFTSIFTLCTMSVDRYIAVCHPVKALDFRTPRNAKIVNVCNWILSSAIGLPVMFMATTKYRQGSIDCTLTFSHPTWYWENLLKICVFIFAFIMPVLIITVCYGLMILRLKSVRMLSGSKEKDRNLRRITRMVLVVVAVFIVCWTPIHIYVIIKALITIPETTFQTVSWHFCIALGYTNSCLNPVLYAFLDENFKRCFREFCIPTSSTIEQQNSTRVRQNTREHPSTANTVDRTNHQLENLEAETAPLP
test: In vitro binding, inhibition of [^3 H]DAGO binding to rat forebrain synaptic membranes
Set-up: species or system Sprague-Dawley rat
condition notes: Ki [^3 H]DAGO, 2 nM [^3 H]DAGO, 25° C., 1 hour
pKi: −log10 of the molar value.
Assign t whenever pKi does not fall below 5; assign f whenever it does.

Here's what some known entries look like.
{"compound": "CC(C)N1CC[C@]2(C)c3cc(F)ccc3C[C@H]1[C@H]2C [(+)-BZ-13]", "class label": "f"}
{"compound": "CC(C1CC1)N1CC[C@]2(C)c3cc(F)ccc3C[C@H]1[C@H]2C (single isomer, unassigned; (+)) [(+)-BZ-14 (Isomer A)]", "class label": "t"}
{"compound": "C=CC(C1CC1)N1CC[C@]2(C)c3ccccc3C[C@H]1[C@H]2C (single isomer, unassigned; (+)) [(+)-BZ-4]", "class label": "f"}
{"compound": "CC(C)N1CC[C@]2(C)c3ccccc3C[C@H]1[C@H]2C [(+)-IIId-6]", "class label": "f"}

# check: pKi of CC(C1CC1)N1CC[C@]2(C)c3ccccc3C[C@H]1[C@H]2C (single isomer, unassigned; (+)) [(+)-IIId-7 (Isomer B)] is greater than or equal to 5
t

# check: pKi of CN1CC[C@@]23CCCC[C@@H]2[C@@H]1Cc1ccc(O)cc13 [Dextrorphan, reference compound] is greater than or equal to 5
t

# check: pKi of CC(C1CC1)N1CC[C@]2(C)c3ccccc3C[C@H]1[C@H]2C (single isomer, unassigned; (+)) [(+)-IIId-7 (Isomer A)] is greater than or equal to 5
t

# check: pKi of CC(C1CO1)N1CC[C@]2(C)c3ccccc3C[C@H]1[C@H]2C (single isomer, unassigned; (+)) [(+)-BZ-5] is greater than or equal to 5
t

# check: pKi of C[C@@H]1[C@@H]2Cc3ccccc3[C@@]1(C)CCN2O [(+)-BZ-17A] is greater than or equal to 5
f

# check: pKi of COc1ccc2c(c1)[C@]13CCCC[C@@H]1[C@H](C2)N(C)CC3 [Dextromethorphan, reference compound] is greater than or equal to 5
t

----------
measured on: μ-site of opioid receptor (Rattus norvegicus)
Construct: Semipurified synaptic membranes were prepared according to the method of Toll et al. (1984); from tissue; host or cells: adult male Sprague-Dawley rat forebrain membranes
test: In vitro binding, inhibition of [^3 H]DAGO binding to rat forebrain synaptic membranes
Design: species or system Sprague-Dawley rat
condition notes: Ki [^3 H]DAGO, 2 nM [^3 H]DAGO, 25° C., 1 hour
Reported values of Ki for individual entries
Write the value in µM as a bare number.

Provide the documented Ki with μ-site of opioid receptor (Rattus norvegicus) as the system for CC(C1CCC1)N1CC[C@]2(C)c3ccccc3C[C@H]1[C@H]2C (single isomer, unassigned; (+)) [(+)-BZ-3 (Isomer B)]
13.5

Provide the documented Ki with μ-site of opioid receptor (Rattus norvegicus) as the system for CC(C1CCC1)N1CC[C@]2(C)c3ccccc3C[C@H]1[C@H]2C (single isomer, unassigned; (+)) [(+)-BZ-3 (Isomer A)]
11.8

Provide the documented Ki with μ-site of opioid receptor (Rattus norvegicus) as the system for C[C@@H]1[C@@H]2Cc3ccccc3[C@@]1(C)CCN2C(C1CC1)C1CC1 [(+)-BZ-1]
11.5

Provide the documented Ki with μ-site of opioid receptor (Rattus norvegicus) as the system for CC(C1CO1)N1CC[C@]2(C)c3ccccc3C[C@H]1[C@H]2C (mixture of isomers) [(+)-BZ-5 (Mixture of Isomer B and C)]
12.4

Provide the documented Ki with μ-site of opioid receptor (Rattus norvegicus) as the system for C#CC(C)N1CC[C@]2(C)c3ccccc3C[C@H]1[C@H]2C (single isomer, unassigned; (+)) [(+)-BZ-6 (Isomer B)]
9

Provide the documented Ki with μ-site of opioid receptor (Rattus norvegicus) as the system for CC(C1CO1)N1CC[C@]2(C)c3ccccc3C[C@H]1[C@H]2C (single isomer, unassigned; (+)) [(+)-BZ-5 (Isomer A)]
9.74

Provide the documented Ki with μ-site of opioid receptor (Rattus norvegicus) as the system for C#CC(C)N1CC[C@]2(C)c3ccccc3C[C@H]1[C@H]2C (single isomer, unassigned; (+)) [(+)-BZ-6 (Isomer A)]
12.3

Provide the documented Ki with μ-site of opioid receptor (Rattus norvegicus) as the system for C[C@@H]1[C@@H]2Cc3ccccc3[C@@]1(C)CCN2C(C)(C)C [(+)-BZ-15A]
7.29

Provide the documented Ki with μ-site of opioid receptor (Rattus norvegicus) as the system for C=CC(C)N1CC[C@]2(C)c3ccccc3C[C@H]1[C@H]2C (single isomer, unassigned; (+)) [(+)-BZ-2]
9.58

Provide the documented Ki with μ-site of opioid receptor (Rattus norvegicus) as the system for CC(C)N1CC[C@]2(C)c3cc(Cl)ccc3C[C@H]1[C@H]2C [(+)-BZ-26]
11.8
